The reported measurements were obtained from patent US12649733B2.

# Tested on: MOLT-4 cells
# method: MOLT-4 cell viability, MTT assay
# Format: cell-based
# conditions: Homo sapiens, MOLT-4, 48 h, 48 h exposure
# Protocol: MTT colorimetric assay is based on the mitochondrial reduction of tetrazolium salt by living cells. The viable cell number is proportional to the production of formazan salts, which can be read spectrophotometrically at 540 nm. MOLT-4 and H146 cells were purchased from ATCC and cultivated in RPMI 1640 supplemented with 10% heat inactivated fetal bovine serum, penicillin (100 IU/ml), streptomycin (100 μg/ml) and L-glutamine (2 mM). […] IC50s were calculated using standard four-parametric curve fitting.
pIC50: −log10 of the molar value.
recorded_metric: pIC50

P. Cc1c(Nc2nc(C(=O)O)c(CCCOc3ccccc3)s2)nnc(Nc2nc3ccccc3s2)c1C
Q. Cc1c(Nc2nc(C(=O)O)c(CCCOc3ccc(C#CCN(C)C)cc3F)s2)nnc(Nc2nc3ccccc3s2)c1C
Q: Looking at P and Q , which one comes out lower in pIC50 terms? Kindly state the label of the option you pick.
A: P
(P: 5.63, Q: 7.05)

P. CNCC#Cc1ccc(OCCCc2sc(N(CCCCC[N+](C)(C)CCO)c3cc(C)c(Nc4nc5ccccc5s4)nn3)nc2C(=O)[O-])c(F)c1
Q. Cc1c(Nc2nc(C(=O)O)cs2)nnc(Nc2nc3ccccc3s2)c1C1CC1
Q: Looking at P and Q , which one comes out lower in pIC50 terms? Kindly state the label of the option you pick.
A: Q
